# TESTED_SYSTEM: Guanlyate kinase (UniProt Q0TBG1)
# Sequence (Q0TBG1 whole entry): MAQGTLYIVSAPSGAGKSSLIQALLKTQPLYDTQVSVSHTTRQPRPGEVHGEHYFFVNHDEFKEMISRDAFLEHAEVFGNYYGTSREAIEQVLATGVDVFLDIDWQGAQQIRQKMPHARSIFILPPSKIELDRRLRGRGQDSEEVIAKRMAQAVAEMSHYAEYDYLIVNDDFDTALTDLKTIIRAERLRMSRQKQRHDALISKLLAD
# EXPERIMENT: relative enzymatic activity vs untreated control (fraction); higher = less inhibition
# CONDITION_PARAMETERS: 100 µM; incubation time: 2 h at 37 C
Entry flag: criterion met if relative enzymatic activity reaches 0.9; criterion not met if it does not.

// query Threshold query (relative enzymatic activity >= 0.9) on `O=C1OC(=O)[C@H]2[C@@H]1[C@H]1CC[C@H]2O1`
// result criterion met

// query Threshold query (relative enzymatic activity >= 0.9) on `CCCN1C[C@H](C)[C@@H](O)[C@](C)(O)[C@@H](CC)OC(=O)[C@H](C)[C@@H](O[C@H]2C[C@@](C)(OC)[C@@H](O)[C@H](C)O2)[C@H](C)[C@@H](O[C@@H]2O[C@H](C)C[C@H](N(C)C)[C@H]2O)[C@](C)(O)C[C@H]1C`
// result criterion not met

// query Threshold query (relative enzymatic activity >= 0.9) on CCC1OC(=O)C(C)C(=O)C(C)C(OC2OC(C)CC(N(C)C)C2O)C(C)(OC)CC(C)C(=O)C(C)C2N(CCCCn3cnc(-c4cccnc4)c3)C(=O)OC12C (centres undefined)
// result criterion met

// query Threshold query (relative enzymatic activity >= 0.9) on COC1(NC(=O)C(C(=O)[O-])c2ccc(O)cc2)C(=O)N2C(C(=O)[O-])=C(CSc3nnnn3C)COC21.[Na+].[Na+] (centres undefined)
// result criterion met

// query Threshold query (relative enzymatic activity >= 0.9) on `CCn1cc(C(=O)O)c(=O)c2cc(F)c(N3CCNCC3)nc21`
// result criterion not met

// query Threshold query (relative enzymatic activity >= 0.9) on `NC[C@H]1O[C@H](O[C@H]2[C@H](O)[C@@H](O[C@H]3O[C@H](CO)[C@@H](O)[C@H](N)[C@H]3O)[C@H](N)C[C@@H]2N)[C@H](N)C[C@@H]1O`
// result criterion not met

// query Threshold query (relative enzymatic activity >= 0.9) on C=C1c2cccc(O)c2C(=O)C2=C(O)C3(O)C(=O)C(C(N)=O)=C(O)C(N(C)C)C3C(O)C12.Cl (centres undefined)
// result criterion not met

Hello, the source for this data is the supplement of paper PMC9446081, in case you need it.
